The measurements presented in this section are drawn from patent US9890202B2.

MEASUREMENT PROTOCOL: XTT cytotoxicity assay
Format: cell-based
CONDITION CONTEXT: mouse, RAW264.7 murine macrophages, RAW264.7 cells, 2 hours incubation, 0.78-100 μM, read-out: LC50 (Lethal Concentration at which 50% of cells die)
Ends that are not written are not given here.
VALUE KIND: CC50 at 2 h (µM)
Respond numerically; units are µM and should not be typed.

Solved cases below.
>>> value_reported("KKLAVTGAFLALYFDLPWKK-NH2 [mTLR1 C′ TM (C to A)]")
50
>>> value_reported("KKLILLVGALCHHFHGLWKK-NH2 [mTLR2 C′ TM, kkLILLVGALCHHFHGLWkk]")
50

Consider the additional substance presented here.
Q: Any idea what its CC50 at 2 h is? The substance is KKLILLVGALAHHFHGLWKK-NH2 [mTLR2 C′ TM (C to A)]
Result: 50
